# Tested on: DMS-273
# EXPERIMENTAL_PROTOCOL: NCI tumour cell line growth inhibition, 48 h
Active and inactive are the calls of the source. Rule as the data show it: active = GI50 up to about 1.1 µM and inactive = higher.
Lab note: assign the record to one of YES (active), NO (inactive)

IN: Could you check what this test reported for `O=C(O/N=C1/CCC/C1=C\c1ccccc1)c1ccc(Cl)c(Cl)c1` ?
OUT: NO

IN: // return assay outcome for `N#Cc1c(-c2ccco2)cc(-c2ccc(N)cc2)[nH]c1=O`
OUT: NO

IN: Give the logged outcome of this assay for the following compound: COc1cc(CCCOC2OC(COC3OCC(O)C(O)C3O)C(O)C(O)C2O)cc2cc(-c3ccc4c(c3)OCO4)oc12 (stereo unspecified)
OUT: NO

IN: # lookup: test call for COc1ccc(/C=C\c2cc(OC)c(OC)c(OC)c2)cc1OC(=O)C(N)CCC(=O)O (stereo unspecified)
OUT: YES

IN: How did this test come out for CC1(Cl)CC2OC3(Br)C=CC(C)(O)C2(CC1Br)C3(C)C (stereo unspecified) ?
OUT: NO

IN: Per the assay record, what outcome was assigned to `CN(C)CCNC(=O)c1cccc2c1nc(-c1ccccn1)c1ccccc12` ?
OUT: NO

---

# Test system: EKVX
# EXPERIMENTAL_PROTOCOL: NCI tumour cell line growth inhibition, 48 h
Activity calls are given as the source filed them. Rule as the data show it: active = GI50 up to about 1.1 µM and inactive = higher.
Reported GI50 is given for each of the following compounds.

Data point: `CCOC(=O)c1cc(-c2ccc(OC)c(OC)c2)c[nH]1` ; GI50 = > 10 µM (inactive)

For this compound ( CC(=O)OC1(C(C)=O)CC2(c3ccccc3)OC1(c1ccccc1)c1ccccc12 (centres undefined) ), measured GI50 is 5.26 µM (inactive)

Record CC1Oc2c(c(O)cc3oc(=O)cc(-c4ccccc4)c23)C(=O)C1C (centres undefined) , field GI50: > 100 µM (inactive)

Entry under test: NC(CCCCCCCCCCP(=O)(O)O)C(=O)O (centres undefined) . Its GI50 was > 100 µM (inactive)

---

# Tested on: RPMI-8226
# EXPERIMENTAL_PROTOCOL: NCI tumour cell line growth inhibition, 48 h
Activity calls are given as the source filed them. Cut-off read from the data, not from the text of the source: active = GI50 up to about 1.1 µM and inactive = higher.
Bench note: report the call from label 1 = active, label 0 = inactive

Below, 5 molecules whose answers are already recorded.
IN: So what was the verdict on CCc1ccc2c(c1)CC1(C2)Cc2cc3c(cc2C1)C(=O)CC3 (configuration not stated) in this test?
OUT: label 0

IN: What is the recorded call for this molecule in the test? `CN1C2CCC1CC(=CCOC(c1ccc(F)cc1)c1ccc(F)cc1)C2`
OUT: label 0

IN: # fetch the recorded call for O=C1CC(c2cccc(Cl)c2)n2cccc21 (configuration not stated) here
OUT: label 0

IN: I would be grateful if you could indicate the recorded call for `CCOC(=O)c1ccc(NC(=O)Oc2ccc3c(C)cc(=O)oc3c2)cc1` .
OUT: label 0

IN: Tell me the recorded outcome of this test for `O=C1C=CC(=O)c2c1ccc1c3ccccc3n(-c3ccccc3[N+](=O)[O-])c21` .
OUT: label 1

New cases:
IN: Call for entry COc1cccc2c1C(=O)c1c(O)c3c(c(O)c1C2=O)C[C@@](O)(C(=O)CO)C[C@@H]3OC1CC(N2CCOCC2)C(O)C(C)O1 (some centres not stated) :
OUT: label 1

IN: // param item: `COc1ccc2c3c1O[C@]1(C)C34CCN(C)C(C2)C42C=C[C@@]1(OC)c1c(O)ccc(O)c12` ; yields the recorded call
OUT: label 0
